- Assay System: UniProt:P31424
- Sequence (P31424 whole entry): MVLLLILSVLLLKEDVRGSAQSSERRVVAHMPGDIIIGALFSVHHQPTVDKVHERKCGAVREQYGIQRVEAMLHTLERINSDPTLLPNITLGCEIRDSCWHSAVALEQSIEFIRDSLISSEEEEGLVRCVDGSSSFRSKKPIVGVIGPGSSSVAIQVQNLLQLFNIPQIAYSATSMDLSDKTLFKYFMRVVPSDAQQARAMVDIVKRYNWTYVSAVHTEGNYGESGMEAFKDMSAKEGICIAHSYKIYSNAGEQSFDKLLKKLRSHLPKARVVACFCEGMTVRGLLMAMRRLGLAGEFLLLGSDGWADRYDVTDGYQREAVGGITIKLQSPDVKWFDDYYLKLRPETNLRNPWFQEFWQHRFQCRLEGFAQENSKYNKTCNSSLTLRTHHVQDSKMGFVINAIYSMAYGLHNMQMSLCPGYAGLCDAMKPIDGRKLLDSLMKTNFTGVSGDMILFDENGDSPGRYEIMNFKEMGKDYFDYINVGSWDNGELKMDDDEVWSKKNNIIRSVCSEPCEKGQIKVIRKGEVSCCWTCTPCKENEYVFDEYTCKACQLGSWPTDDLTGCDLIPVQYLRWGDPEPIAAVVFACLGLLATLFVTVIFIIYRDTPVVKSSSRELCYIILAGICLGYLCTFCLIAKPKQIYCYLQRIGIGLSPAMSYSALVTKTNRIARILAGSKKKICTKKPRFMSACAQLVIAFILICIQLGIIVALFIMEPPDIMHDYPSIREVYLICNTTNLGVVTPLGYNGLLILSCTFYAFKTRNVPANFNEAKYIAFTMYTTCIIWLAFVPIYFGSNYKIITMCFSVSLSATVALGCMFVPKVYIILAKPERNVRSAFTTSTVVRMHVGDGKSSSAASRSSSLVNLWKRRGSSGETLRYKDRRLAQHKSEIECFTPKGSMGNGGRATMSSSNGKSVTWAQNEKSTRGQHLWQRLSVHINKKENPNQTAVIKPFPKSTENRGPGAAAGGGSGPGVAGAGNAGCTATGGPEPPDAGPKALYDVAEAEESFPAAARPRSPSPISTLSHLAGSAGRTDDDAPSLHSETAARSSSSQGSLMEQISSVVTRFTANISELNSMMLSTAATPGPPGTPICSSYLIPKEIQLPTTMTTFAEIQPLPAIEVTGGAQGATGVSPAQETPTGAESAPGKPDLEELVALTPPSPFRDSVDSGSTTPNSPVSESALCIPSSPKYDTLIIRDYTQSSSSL
- Method Summary: Identification of a glycine sulfonamide based non-MPEP site positive allosteric potentiator (PAM) of mGlu5 (calcium_assay).
Measured Attribute: EC50 (µM)
Lab book: enter the figure in µM, no units written.

# input Recorded EC50 for CC(C(=O)Nc1cc(F)cc(C#N)c1)N(c1ccccc1Cl)S(C)(=O)=O (stereo unspecified) with UniProt:P31424, please?
# output 5.45

###

- Assay System: Luciferin 4-monooxygenase (Photinus pyralis, UniProt P08659)
- Sequence (P08659 whole entry): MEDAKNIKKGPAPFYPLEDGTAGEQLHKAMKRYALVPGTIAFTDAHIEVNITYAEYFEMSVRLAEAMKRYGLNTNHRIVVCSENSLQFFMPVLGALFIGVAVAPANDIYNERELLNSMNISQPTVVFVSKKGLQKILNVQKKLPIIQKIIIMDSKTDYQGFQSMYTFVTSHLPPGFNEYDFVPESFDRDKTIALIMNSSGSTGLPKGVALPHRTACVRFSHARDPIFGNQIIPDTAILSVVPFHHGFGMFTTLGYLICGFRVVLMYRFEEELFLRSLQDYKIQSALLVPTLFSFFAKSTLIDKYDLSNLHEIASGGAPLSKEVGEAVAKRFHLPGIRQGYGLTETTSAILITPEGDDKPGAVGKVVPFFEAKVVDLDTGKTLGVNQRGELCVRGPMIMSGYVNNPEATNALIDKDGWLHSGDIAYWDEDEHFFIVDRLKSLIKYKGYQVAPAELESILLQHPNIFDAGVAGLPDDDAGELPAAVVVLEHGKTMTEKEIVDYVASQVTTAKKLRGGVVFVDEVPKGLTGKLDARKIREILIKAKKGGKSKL
- Method Summary: firefly luciferase enzyme inhibitors, dose response, biochemical, luminescence (AID 1891)
Active and inactive are the calls of the source.
Reported EC50 values for the following compounds.

Please review the entries below; each comes with its answer.
> print(dat)
                               smiles.input   recorded.measurement
1  COc1ccc(CCNC(=O)c2ccc3c(c2)SC2=NS(=O)(=O)CCN23)cc1  > 112 µM (not active)
2  O=C(CCCn1nnc2ccccc2c1=O)N[C@H](C(=O)O)c1ccccc1  > 112 µM (not active)
3  CC(C)(C)C(=O)/C(=C\c1ccc([N+](=O)[O-])cc1)n1cncn1  > 112 µM (not active)
4           COc1ccc(-c2nc(-c3ccccn3)no2)cc1      0.548 µM (active)

# input Please tell me: EC50 of "CC(C)(C)n1nc(-c2ccc(Cl)cc2)c2c(N)ncnc21" , system Luciferin 4-monooxygenase (Photinus pyralis, UniProt P08659)?
# output 23.3 µM (active)

###

- Method Summary: growth suppression of beta-catenin-knockout colon cells, dose response, cell-based, HCT116, human colon tumor (AID 1045);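 note: HCT116 colon tumor cells with beta catenin knocked out; cells exposed to compound for 60 hours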
- Type: functional
Calls of active or inactive are those of the source.
Measured Attribute: EC50

> print(dat)
                                   molecule  measured.attribute  recorded.measurement
1  CC(C)(C)C(=O)/C(=C\c1ccc([N+](=O)[O-])cc1)n1cncn1                EC50      1.29 µM (active)
2  COc1ccc(NC(=O)Cn2cnc3c(cnn3-c3ccc(C)c(C)c3)c2=O)c(OC)c1                EC50      27.8 µM (active)
3  COc1ccccc1-c1cc(-c2ccccc2)nc(SC(C(N)=O)c2ccccc2)c1C#N (centres undefined)                EC50      7.47 µM (active)

Please find the next molecule below.
# input Given "Cc1ccc(Nc2cc(C)nc(NCc3ccccc3)n2)cc1" , state its recorded EC50.
# output 6.62 µM (active)

###

- Assay System: Corticotropin-releasing factor receptor 2/Corticotropin-releasing factor-binding protein (Homo sapiens, UniProt P24387+Q13324)
- Sequence (Q13324 whole entry): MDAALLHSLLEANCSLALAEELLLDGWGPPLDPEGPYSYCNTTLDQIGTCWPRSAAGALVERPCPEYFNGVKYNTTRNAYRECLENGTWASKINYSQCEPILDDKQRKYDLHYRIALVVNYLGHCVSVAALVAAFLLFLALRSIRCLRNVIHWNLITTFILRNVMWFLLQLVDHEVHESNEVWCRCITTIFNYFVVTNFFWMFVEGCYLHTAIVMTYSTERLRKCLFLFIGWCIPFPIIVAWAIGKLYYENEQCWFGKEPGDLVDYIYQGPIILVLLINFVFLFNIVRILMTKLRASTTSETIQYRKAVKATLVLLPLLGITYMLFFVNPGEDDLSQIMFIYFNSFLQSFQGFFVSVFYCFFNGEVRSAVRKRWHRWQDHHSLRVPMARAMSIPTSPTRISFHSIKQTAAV
- Sequence (P24387 whole entry): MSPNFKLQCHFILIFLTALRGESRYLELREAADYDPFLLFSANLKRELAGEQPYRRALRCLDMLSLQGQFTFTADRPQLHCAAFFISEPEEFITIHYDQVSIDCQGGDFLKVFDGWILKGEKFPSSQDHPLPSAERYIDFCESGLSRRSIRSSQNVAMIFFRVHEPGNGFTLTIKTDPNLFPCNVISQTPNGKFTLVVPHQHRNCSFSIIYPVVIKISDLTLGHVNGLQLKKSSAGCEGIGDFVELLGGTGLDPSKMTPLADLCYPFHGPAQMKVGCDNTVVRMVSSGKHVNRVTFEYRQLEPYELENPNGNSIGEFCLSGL
- Method Summary: Dose Response confirmation of uHTS hits for small molecule antagonists of the CRF-binding protein and CRF-R2 receptor complex.
- Format: functional
- Condition Details: read-out: IC50_Mean
The source made the active and inactive calls.
Mark one answer only. Choices: active, inactive

> print(dat)
                                   compound  assigned.category
1  COc1ccc(C(=O)NCCS(=O)(=O)N(C)C2CCCCC2)cc1           inactive
2  Cc1ccc(N=Nc2ccc(O)c(P(=O)(c3ccccc3)c3ccccc3)c2)cc1           inactive
3  COc1ccc(N(CC(=O)NCCSc2ccccn2)S(=O)(=O)c2ccc(C)cc2)cc1OC           inactive

# input Give the logged outcome of this assay for the following compound: "O=C(OCc1ccc2c(c1)OCO2)c1ccc(S(=O)(=O)N2CCCC2)cc1"
# output inactive

# input For "O=C(Nc1ccccc1C(=O)N1CCOCC1)c1ccncc1" , which call appears in the assay record?
# output inactive

# input Status in this test for "O=C(CSc1ccc(-c2ccncc2)nn1)N1CCN(c2ccccc2)CC1" ?
# output inactive

# input Which outcome was entered for the compound "COCC(=O)N(C)[C@H]1C[C@H]2c3cc(N4CCN(C)CC4)ccc3CCN2C(=O)[C@H]1[C@H](C)O" in this test?
# output inactive

# input Lab log entry: "CCOc1ccc(N/N=C2\C(=O)Nn3c2nc2c(c3=O)CCCC2)cc1" — outcome as called in the assay?
# output active

# input Can you look up the reported call for "COc1ccc(N2CCN(CCCNC(=O)C(=O)c3c(C)[nH]c4ccccc34)CC2)cc1" for me?
# output inactive

###

# EC50 annotations
- Method Summary: C. albicans growth with fluconazole, confirmation, fluorescence, retest (AID 2467)
- Format: functional, cell-based
Activity calls are given as the source filed them.

# input Reported EC50, molecule "Cc1ccc2nc(-c3ccc(NC(S)=NC4CC(C)(C)NC(C)(C)C4)cc3)sc2c1" : ____
# output > 38 µM (not active)

# input Can you share its EC50? I mean this molecule: "O=C(/C=C/c1ccc(F)cc1)N1CCN(c2ccccn2)CC1"
# output 2.94 µM (active)

# input Recorded EC50 of "CN(C)S(=O)(=O)Oc1cccc(C(=O)Nc2ccc(Cl)cc2)c1" , please.
# output 1.25 µM (active)

# input What measured EC50 goes with COC(=O)C1=NN(C(=O)c2ccc(Cl)cc2)C(O)(c2ccccc2)C1 (centres undefined) ?
# output > 38 µM (not active)

###

- System: P388;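 note: compound exposure lasted 48 hours before growth was measured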
- Method Summary: cells
- Format: functional
- Condition Details: Mus musculus
Activity calls are given as the source filed them.
Outcome (select one): active, inactive

> print(dat)
                                   compound  assay.system  assigned.category
1  COc1cc(C2c3cc4c(cc3[C@@H](Nc3ccc(F)cc3)C3COC(=O)[C@H]23)OCO4)cc(OC)c1O (stereo not given in full)          P388             active
2  O=C(c1ccccc1O)c1cc(-c2ncc3c(=O)c4ccccc4oc3n2)c(-c2ccccc2O)[nH]c1=O          P388           inactive
3        O=C(Cn1ccnc1[N+](=O)[O-])N(CCO)CCO          P388           inactive
4  COC(=O)[C@]1(c2ccc(N(C)C)cc2OC)C[C@@H]2CCCN(CCc3c1[nH]c1ccccc31)C2          P388           inactive

Consider the additional compound presented here.
# input Outcome? COC(=O)C(C/C=C(\C)c1ccccc1)C(C)=O (stereo not given)
# output inactive

###

- Assay System: RNA-binding protein pos-1 (Caenorhabditis elegans)
- Sequence (G5EF15 whole entry): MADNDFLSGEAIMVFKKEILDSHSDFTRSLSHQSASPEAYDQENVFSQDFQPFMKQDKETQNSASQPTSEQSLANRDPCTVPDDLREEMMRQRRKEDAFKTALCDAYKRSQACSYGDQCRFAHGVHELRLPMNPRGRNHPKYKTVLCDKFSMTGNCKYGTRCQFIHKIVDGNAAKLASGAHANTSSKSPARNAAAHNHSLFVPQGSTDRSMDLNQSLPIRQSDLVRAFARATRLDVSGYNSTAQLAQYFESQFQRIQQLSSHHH
- Method Summary: inhibitors of POS-1/mex-3 RNA binding, dose response, biochemical, fluorescence polarization (AID 1964);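 note: purified POS-1 fused to maltose binding protein made in E. coli; potency of compounds blocking POS-1 binding to fluorescent RNA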
Calls of active or inactive are those of the source.
EC50 values by entry

Solved cases (2 shown):
> print(dat)
                                   molecule   recorded.measurement
1  CCOc1cc(/C=C/c2cccc[n+]2C)ccc1OCC(=O)Nc1ccc(C)cc1  > 300 µM (not active)
2  CCC(=O)OC1(C)C(=O)C2=COC(c3ccc(OC)cc3)=CC2=C(Br)C1=O (stereo not given)       31.5 µM (active)

Proceeding to the next molecule to report its EC50.
# input # EC50 lookup, item "CCOC(CNC(=O)CCc1c(C)nc2nc(C)nn2c1C)OCC"
# output > 300 µM (not active)

###

Consider the following compounds and their measured IC50 readings.
- Assay System: Estrogen receptor beta (Homo sapiens, UniProt Q92731);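 note: recombinant ER-beta bound to coactivator SRC1 peptide in presence of estradiol agonist; inhibitors block coactivator peptide binding and lower the FRET signal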
- Sequence (Q92731 whole entry): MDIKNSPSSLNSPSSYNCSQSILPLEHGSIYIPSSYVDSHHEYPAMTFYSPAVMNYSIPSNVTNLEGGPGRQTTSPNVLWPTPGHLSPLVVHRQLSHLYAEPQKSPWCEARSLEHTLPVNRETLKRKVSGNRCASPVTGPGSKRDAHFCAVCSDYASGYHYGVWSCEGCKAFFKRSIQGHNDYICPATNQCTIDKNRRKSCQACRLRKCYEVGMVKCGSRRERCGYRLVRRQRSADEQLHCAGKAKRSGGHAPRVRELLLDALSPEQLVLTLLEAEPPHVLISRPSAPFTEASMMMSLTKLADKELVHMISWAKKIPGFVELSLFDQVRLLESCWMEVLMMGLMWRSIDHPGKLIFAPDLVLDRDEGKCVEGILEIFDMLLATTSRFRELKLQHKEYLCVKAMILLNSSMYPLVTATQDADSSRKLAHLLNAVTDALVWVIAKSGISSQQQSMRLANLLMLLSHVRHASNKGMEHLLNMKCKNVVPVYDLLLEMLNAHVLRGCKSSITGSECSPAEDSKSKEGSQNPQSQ
Calls of active or inactive are those of the source.

Study these solved cases before continuing.
> print(dat)
                                   compound                              assay.system  measured.attribute  recorded.measurement
1  O=C1NC(c2ccc(Br)cc2)Nc2sc3c(c21)CCC3 (configuration not stated)  Estrogen receptor beta (Homo sapiens, UniProt Q92731)                IC50  > 50 µM (not active)
2  Cc1nc2c(c(=O)n1CCC1=CCCCC1)c1nc3ccccc3nc1n2/N=C/c1ccco1  Estrogen receptor beta (Homo sapiens, UniProt Q92731)                IC50  > 50 µM (not active)
3       Cc1ccc(C)c(SCC(=O)OCC(=O)c2ccco2)c1  Estrogen receptor beta (Homo sapiens, UniProt Q92731)                IC50      6.74 µM (active)
4       Cc1onc(-c2ccccc2Cl)c1C(=O)NCc1ccco1  Estrogen receptor beta (Homo sapiens, UniProt Q92731)                IC50  > 50 µM (not active)
5  N#C/C(=C\c1c(N2CCC(C(N)=O)CC2)nc2ccccn2c1=O)S(=O)(=O)c1ccccc1  Estrogen receptor beta (Homo sapiens, UniProt Q92731)                IC50  > 50 µM (not active)
6  Cc1ccnc(NS(=O)(=O)c2ccc(NC(=O)Cc3cccs3)cc2)n1  Estrogen receptor beta (Homo sapiens, UniProt Q92731)                IC50      3.09 µM (active)

Shifting focus to the compound that follows.
# input Query IC50 on Estrogen receptor beta (Homo sapiens, UniProt Q92731) for COc1ccc(Cn2nnnc2C(c2ccccc2OC)N2CCC(C(N)=O)CC2)cc1 (configuration not stated)
# output > 50 µM (not active)
